Test system: miR-21
assay protocol: miR-21 luciferase sensor assay in Hela cells
Type: cell-based
experimental context: concentration of anti-miR compound 1.9 (unit not given)
Strand notation (5' to 3'): a small letter for the sugar, then the base; units joined by * are phosphorothioate-linked, units joined directly phosphodiester-linked; [ ] holds rarer units or linkages, { } end groups; capitals alone tell only the bases. e = 2'-O-(2-methoxyethyl) (MOE); l = locked nucleic acid (LNA); k = constrained ethyl (cEt); [5mC] = 5-methylcytosine
// values below are reported fold change in luciferase value relative to the mock treatment
test readout: fold change in luciferase value relative to the mock treatment (fold change)

{"substance": "AE^MeCSAETE^MeCSAEGETE^MeCSTEGEAE^MeTSAEAEGE^MeCSTEAE (antisense eA*k[5mC]*eA*eT*k[5mC]*eA*eG*eT*k[5mC]*eT*eG*eA*kT*eA*eA*eG*k[5mC]*eT*eA; further chemistry not given here) [Compound 25116, variation of 25070: each non-bicyclic nucleoside is 2′-MOE, each cytosine 5-methyl cytosine]", "output unit": "fold change", "recorded number": 1.06}
{"substance": "AE^MeCLAETE^MeCLAEGETE^MeCLTEGEAE^MeTLAEAEGE^MeCLTEAE (antisense eA*l[5mC]*eA*eT*l[5mC]*eA*eG*eT*l[5mC]*eT*eG*eA*lT*eA*eA*eG*l[5mC]*eT*eA) [Compound 25117, variation of 25070: each non-bicyclic nucleoside is 2′-MOE, each cytosine 5-methyl cytosine]", "output unit": "fold change", "recorded number": 1.14}
{"substance": "AE^MeCSAT^MeCSAGT^MeCSTGATSAAG^MeCSTAE (antisense ACATCAGTCTGATAAGCTA; MOE ends, cEt, 5-methyl C, unmarked nucleosides not given here, further chemistry not given here) [Compound 25922, variation of 25070: each cytosine is a 5-methyl cytosine]", "output unit": "fold change", "recorded number": 1.34}

---

System: UUO model of kidney fibrosis
assay protocol: Unilateral ureteral obstruction (UUO) model of kidney fibrosis: kidney collagen 1A1 and collagen 3A1 expression by real-time PCR
Type: in vivo, mice
experimental context: Table K; group mean; UUO mice, 20 mg/kg at days -3, -1, +5; kidney at day 11; UUO-PBS mean 87.2
test readout: Collagen 3A1 (Normalized Expression) Mean

{"substance": "TE^MeCEAEAECSAETECSAEGETECSTEGEAEUSAEAEGECSTEAE (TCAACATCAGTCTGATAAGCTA; modified nucleosides and phosphorothioate, code letters not given here, further chemistry not given here) [Compound 25068]", "recorded number": 60.6}
{"substance": "UECEAFAFCFAFUFCFAFGFUFCEUEGEAFUFAFAFGFCFUEAE (antisense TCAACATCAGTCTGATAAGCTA; listed as DNA, chemistry not fully specified) [Compound 25919, reference compound]", "recorded number": 56.9}
{"substance": "AECSATCSAGTCSTGAUSAAGCSTAE (ACATCAGTCTGATAAGCTA; modified nucleosides, phosphorothioate linkages, chemistry not fully specified) [Compound 25070]", "recorded number": 55.5}

---

System: miR-21
assay protocol: miR-21 luciferase sensor assay in Hela cells
Format: cell-based
experimental context: .8 nM oligonucleotide; Hela cells
test readout: luciferase value normalized to beta-galactosidase activity

{"substance": "Te^MeCASA^MeCAST^MeCAGST^MeCTGASTAAGS^MeCTAe (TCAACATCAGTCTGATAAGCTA; cEt, 5-methyl C and phosphorothioate modifications, code letters not given here, further chemistry not given here) [Compound 25067]", "recorded number": 23}
{"substance": "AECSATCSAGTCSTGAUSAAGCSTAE (ACATCAGTCTGATAAGCTA; modified nucleosides, phosphorothioate linkages, chemistry not fully specified) [Compound 25070]", "recorded number": 87}
{"substance": "AECSAETECSAEGETECSTEGEAEUSAEAEGECSTEAE (ACATCAGTCTGATAAGCTA; anti-miR; sugar and backbone modifications, code letters not given here, further chemistry not given here) [Compound 25072]", "recorded number": 49}

Each recorded value in this set is attributed to patent US20120270928A1.
